Source of measurements: ChEMBL document CHEMBL1130213

Target: Metabotropic glutamate receptor 4 (Homo sapiens)
Sequence (Q14833 whole entry): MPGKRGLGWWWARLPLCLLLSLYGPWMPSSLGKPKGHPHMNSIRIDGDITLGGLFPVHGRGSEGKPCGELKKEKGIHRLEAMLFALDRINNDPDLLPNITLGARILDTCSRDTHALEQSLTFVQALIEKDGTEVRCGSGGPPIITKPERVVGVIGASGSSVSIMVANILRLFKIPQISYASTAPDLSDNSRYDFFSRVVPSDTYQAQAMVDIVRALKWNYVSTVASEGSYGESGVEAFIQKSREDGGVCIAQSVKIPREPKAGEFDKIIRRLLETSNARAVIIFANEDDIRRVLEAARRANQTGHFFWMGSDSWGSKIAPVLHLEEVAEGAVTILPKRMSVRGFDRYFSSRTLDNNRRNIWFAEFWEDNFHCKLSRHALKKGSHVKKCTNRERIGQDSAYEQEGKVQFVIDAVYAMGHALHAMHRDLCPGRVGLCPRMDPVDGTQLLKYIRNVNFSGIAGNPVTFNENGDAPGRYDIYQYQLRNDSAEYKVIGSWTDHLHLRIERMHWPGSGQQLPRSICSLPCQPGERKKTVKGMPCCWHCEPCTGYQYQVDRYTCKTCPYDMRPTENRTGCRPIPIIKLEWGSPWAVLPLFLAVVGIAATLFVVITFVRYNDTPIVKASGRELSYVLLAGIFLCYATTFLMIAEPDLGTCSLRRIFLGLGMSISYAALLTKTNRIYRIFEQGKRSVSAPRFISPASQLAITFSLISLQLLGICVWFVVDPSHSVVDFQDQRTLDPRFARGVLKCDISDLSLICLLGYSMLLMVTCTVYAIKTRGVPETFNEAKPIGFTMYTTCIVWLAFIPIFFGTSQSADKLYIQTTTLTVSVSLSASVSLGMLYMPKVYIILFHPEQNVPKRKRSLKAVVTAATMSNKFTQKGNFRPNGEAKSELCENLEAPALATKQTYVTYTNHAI
Test: Agonist activity against Metabotropic glutamate receptor 4 expressed in HEK 293 cells was evaluated by measuring total inositol phosphate accumulation
Format: functional, cell-based, HEK293
QUANTITY KIND: EC50 (µM)
Please state the figure in µM; there is no need to write the unit.

See these solved cases before continuing.
| COMPOUND | VALUE UNIT | EC50 |
| --- | --- | --- |
| NC1(C(=O)O)CC(C(=O)O)C(C(=O)O)C1 (racemic) | µM | 40 |
| NC1(C(=O)O)C[C@H](C(=O)O)[C@@H](C(=O)O)C1 | µM | 8.8 |

Continue with the compound presented below.
For this compound ( N[C@@]1(C(=O)O)C[C@H](C(=O)O)[C@H](C(=O)O)C1 ), measured EC50 is 7.2
